Test system: MDR1 (P-gp)
test details: Apparent permeability across basolateral to apical side in dog MDCKII-MDR1 cells at 3 uM preincubated with P-gp inhibitor elacridar for 15 to 30 mins followed by compound addition and measured after 60 to 90 mins by LC-MS/MS analysis
Format: ADME, cell-based, Canis lupus familiaris
experimental conditions: MDCK-MDR1, with elacridar (P-gp inhibitor; concentration not stated), time 60-90 min
assay readout: Papp B→A at 3 µM (×10⁻⁶ cm/s)

| structure smiles | assay readout | scale unit | recorded measurement |
| --- | --- | --- | --- |
| O=C(O)Cc1ccc(O)cc1Nc1c(Cl)cccc1Cl | Papp B→A at 3 µM | ×10⁻⁶ cm/s | 2.71 |

###

test details: Chemical stability of compound in PBS buffer at pH 7.4 assessed as half life at 37 degreeC incubated for 7 days by HPLC based LC-MS analysis
Format: physicochemical
experimental conditions: time 7 day

| structure smiles | half-life (h) |
| --- | --- |
| O=C(O)Cc1ccc(O)cc1Nc1c(Cl)cccc1Cl | 24 |

###

assayed target: Calcium/calmodulin-dependent protein kinase type II subunit alpha (Rattus norvegicus, UniProt P11275)
Sequence (P11275 whole entry): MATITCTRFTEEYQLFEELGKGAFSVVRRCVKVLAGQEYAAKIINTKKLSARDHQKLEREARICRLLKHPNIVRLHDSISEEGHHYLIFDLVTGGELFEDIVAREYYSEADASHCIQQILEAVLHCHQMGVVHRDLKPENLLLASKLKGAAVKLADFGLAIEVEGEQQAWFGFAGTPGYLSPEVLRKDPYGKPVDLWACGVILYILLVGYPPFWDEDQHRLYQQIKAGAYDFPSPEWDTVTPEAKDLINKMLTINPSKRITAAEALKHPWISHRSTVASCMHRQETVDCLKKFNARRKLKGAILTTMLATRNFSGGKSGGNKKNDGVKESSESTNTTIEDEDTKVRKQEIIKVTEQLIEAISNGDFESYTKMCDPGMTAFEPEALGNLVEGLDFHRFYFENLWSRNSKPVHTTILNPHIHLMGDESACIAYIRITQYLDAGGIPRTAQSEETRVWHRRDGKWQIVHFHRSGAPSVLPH
test details: Displacement of [3H]NCS-382 from CaMK2alpha in rat brain cerebral cortex membrane homogenates assessed as inhibition constant measured after 60 mins by TopCount scintillation counting method
Assay type: cell membranes
pKi: −log10 of the molar value.
Response key: Criterion met means pKi >= 7; Criterion not met means pKi < 7.

| structure smiles | label class |
| --- | --- |
| O=c1[nH]c(Cc2cc(O)ccc2Oc2ccccc2Cl)no1 | Criterion not met |
| Oc1ccc(Oc2ccccc2Cl)c(Cc2cc(O)no2)c1 | Criterion not met |
| O=C(O)Cc1ccc(O)cc1Oc1ccccc1Cl | Criterion met |
| O=C(O)Cc1ccccc1Nc1c(Cl)cccc1Cl | Criterion not met |
| O=C(O)Cc1cc(O)ccc1Oc1ccc([N+](=O)[O-])cc1Cl | Criterion met |
| O=C(O)Cc1ccc(O)cc1Oc1ccccc1 | Criterion met |
| O=C1Cc2cc(O)ccc2N1c1c(Cl)cccc1Cl | Criterion not met |
| O=C(O)Cc1cc(O)ccc1Oc1ccccc1O | Criterion met |
| Oc1ccc(Oc2ccccc2Cl)c(-c2nnn[nH]2)c1 | Criterion not met |
| O=C(O)Cc1ccc(O)cc1Oc1c(Cl)cccc1Cl | Criterion met |
| NC(=O)Cc1cc(O)ccc1Oc1ccccc1Cl | Criterion not met |

###

Tested on: BCRP
test details: Apparent permeability across apical to basolateral side in dog MDCK-II cells expressing BCRP at 3 uM measured after 60 to 90 mins by LC-MS/MS analysis
Type: ADME, cell-based, Canis lupus familiaris
experimental conditions: time 60-90 min

| structure smiles | Papp A→B at 3 µM |
| --- | --- |
| O=C(O)Cc1ccc(O)cc1Nc1c(Cl)cccc1Cl | 1.25 ×10⁻⁶ cm/s |

###

Test system: BCRP
test details: Apparent permeability across basolateral to apical side in dog MDCK-II cells expressing BCRP at 3 uM measured after 60 to 90 mins by LC-MS/MS analysis
Type: ADME, cell-based, Canis lupus familiaris
experimental conditions: time 60-90 min
assay readout: Papp B→A at 3 µM (×10⁻⁶ cm/s)

| structure smiles | recorded measurement |
| --- | --- |
| O=C(O)Cc1ccc(O)cc1Nc1c(Cl)cccc1Cl | 19.1 |

###

test details: Brain concentration in C57BL/6J mouse at 5 mg/kg , sc measured after 30 mins by UPLC based tandem mass spectrometry analysis
Format: ADME, organism-based
experimental conditions: read-out: Ct

| structure smiles | concentration at 0.5 h (ng/mL) |
| --- | --- |
| O=C(O)Cc1ccc(O)cc1Nc1c(Cl)cccc1Cl | 88 |
